# Test system: Saccharomyces cerevisiae
# procedure.text: protein stability index of tFT-peptide fusion (C-terminal peptide) (PSI (0-1 scale)); higher = more stable (slower turnover);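 note: PSI is a weighted mean of sequencing reads over stability bins, variants kept only with over 10 reads, mCherry proximal and sfGFP distal, peptide attached via GGGS linker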
# settings: genetic background: doa10 deletion; temperature: 30 C
Grouping by measured protein stability index is done with the following cut points: label 0: < 0.2; label 1: ≥ 0.2 and < 0.3; label 2: ≥ 0.3

# record.sequence, class.label
rows = [
    ("VSGVLRSMVRLQ", "label 1"),
    ("APPFPPPPARSL", "label 2"),
    ("LVLGLYGVWLVV", "label 2"),
    ("EWVGIFRGVSVF", "label 1"),
    ("LCTCFLVLLLWC", "label 2"),
    ("SFFCTRVLWVFQ", "label 0"),
    ("YPLISVSLPCPS", "label 2"),
    ("GLSLVCWIVVLG", "label 0"),
    ("RLLCLARMRGLH", "label 2"),
    ("HCNRRNKIYWYS", "label 0"),
    ("YIYIFLVWGWYC", "label 0"),
    ("GWLSVLVYFLSG", "label 1"),
    ("WILPASFCVVFL", "label 2"),
    ("SPLASLRFWCFC", "label 2"),
    ("VFIPFGFCLCFV", "label 2"),
    ("GCRLRHRLVRIV", "label 0"),
    ("WVFVETVFLVCG", "label 0"),
]

* * *

# Test system: Saccharomyces cerevisiae
# procedure.text: protein stability index of tFT-peptide fusion (C-terminal peptide) (PSI (0-1 scale)); higher = more stable (slower turnover)
# settings: genetic background: wild type; temperature: 30 C
measured.quantity: protein stability index

# record.sequence, measured.quantity, measurement
data = [
    ("FGVLGCGFLLSL", "protein stability index", 0.688),
    ("PPSPSLPPPPRS", "protein stability index", 0.699),
    ("LGRGGAASGRAL", "protein stability index", 0.67),
    ("LPVPLYPTPALL", "protein stability index", 0.666),
    ("ASGPLPPHPIAD", "protein stability index", 0.677),
    ("DAACDSGLSAEW", "protein stability index", 0.722),
    ("REGALVYWGFLG", "protein stability index", 0.652),
    ("CWSRLADSFVSL", "protein stability index", 0.683),
    ("TPPLPPPPPPIH", "protein stability index", 0.741),
    ("VYGWSPLSEARN", "protein stability index", 0.738),
    ("PLTPVSPSPNPV", "protein stability index", 0.648),
    ("RLLGSSPAVLLY", "protein stability index", 0.628),
    ("CVGQYVHWDLLV", "protein stability index", 0.549),
    ("HCLLQDVPPTLH", "protein stability index", 0.734),
    ("VTSTVPRFPQFT", "protein stability index", 0.667),
    ("QNGAEESVSVGT", "protein stability index", 0.662),
    ("GINEGRAISDDW", "protein stability index", 0.725),
    ("LPPPPPPLPHPP", "protein stability index", 0.597),
    ("SRRGVVGLRVGI", "protein stability index", 0.674),
]

* * *

# Test system: Saccharomyces cerevisiae
# procedure.text: protein stability index of tFT-peptide fusion (C-terminal peptide) (PSI (0-1 scale)); higher = more stable (slower turnover)
# settings: genetic background: wild type; temperature: 37 C
The following sequences are listed with their measured protein stability index values.
measured.quantity: protein stability index

# record.sequence, subject.of.test, measurement
rows = [
    ("WACAWRGMVKVG", "Saccharomyces cerevisiae", 0.0811),
    ("FWYIRIRLAVVA", "Saccharomyces cerevisiae", 0.0826),
    ("FFFLVRLCRLCV", "Saccharomyces cerevisiae", 0.353),
    ("SRCLALVICYRV", "Saccharomyces cerevisiae", 0.3),
    ("LAKPTVRKIICV", "Saccharomyces cerevisiae", 0.421),
    ("SLFDQDCGGTVW", "Saccharomyces cerevisiae", 0.804),
    ("IWWFKELRVCRV", "Saccharomyces cerevisiae", 0.539),
    ("FFFFFIHFLCYF", "Saccharomyces cerevisiae", 0.357),
    ("FAKRVARVAREH", "Saccharomyces cerevisiae", 0.383),
    ("KLLDHFVKIRVY", "Saccharomyces cerevisiae", 0.0534),
    ("WWVVVRGGWCLC", "Saccharomyces cerevisiae", 0.205),
    ("FLLLVVYVSLYS", "Saccharomyces cerevisiae", 0.224),
    ("PPPRLPLLSCSQ", "Saccharomyces cerevisiae", 0.66),
    ("WLFRASSFNWVI", "Saccharomyces cerevisiae", 0.188),
    ("ARLTNYFVEWLS", "Saccharomyces cerevisiae", 0.592),
    ("VCVYLVSLPYLA", "Saccharomyces cerevisiae", 0.381),
    ("IKSIKQNKIKTI", "Saccharomyces cerevisiae", 0.246),
    ("WVWCVCVVVWCG", "Saccharomyces cerevisiae", 0.195),
    ("YNTVALRITLIT", "Saccharomyces cerevisiae", 0.364),
    ("FLFFRFLVGCCF", "Saccharomyces cerevisiae", 0.427),
    ("FCRLCYLLLFCC", "Saccharomyces cerevisiae", 0.202),
    ("GVKSQLYSFVWF", "Saccharomyces cerevisiae", 0.593),
    ("GWVSCCVWSFLV", "Saccharomyces cerevisiae", 0.063),
    ("GFGRDHGNDTGP", "Saccharomyces cerevisiae", 0.725),
    ("PSPPPPLPPHPS", "Saccharomyces cerevisiae", 0.716),
    ("APPFPPPPARSL", "Saccharomyces cerevisiae", 0.677),
    ("TVLGRDFALSVC", "Saccharomyces cerevisiae", 0.501),
    ("SRGKMTIVSNQI", "Saccharomyces cerevisiae", 0.704),
    ("WILPASFCVVFL", "Saccharomyces cerevisiae", 0.528),
    ("VSDLYLSLVRVV", "Saccharomyces cerevisiae", 0.492),
    ("WCGSWGVWMRLG", "Saccharomyces cerevisiae", 0.112),
    ("GGYVTVTSVTVV", "Saccharomyces cerevisiae", 0.611),
    ("RFFFFFPCLLAP", "Saccharomyces cerevisiae", 0.486),
    ("CLISILLFLCFT", "Saccharomyces cerevisiae", 0.446),
    ("TLDWKFGRGGIG", "Saccharomyces cerevisiae", 0.404),
    ("GGGGVFGVWVWM", "Saccharomyces cerevisiae", 0.494),
    ("VFCLPISAPPLH", "Saccharomyces cerevisiae", 0.703),
    ("GIISMYVARRLG", "Saccharomyces cerevisiae", 0.3),
    ("LLFLWVLFLPFA", "Saccharomyces cerevisiae", 0.472),
    ("ASPLRLFIPFLF", "Saccharomyces cerevisiae", 0.413),
    ("ERFRLYFRPGIF", "Saccharomyces cerevisiae", 0.58),
]

These entries and their values trace back to the supplement of paper PMC10724198.
